# tgt: Stx2A1 (Escherichia phage 933W)
# Sequence (P09385 23-272 limits assumed): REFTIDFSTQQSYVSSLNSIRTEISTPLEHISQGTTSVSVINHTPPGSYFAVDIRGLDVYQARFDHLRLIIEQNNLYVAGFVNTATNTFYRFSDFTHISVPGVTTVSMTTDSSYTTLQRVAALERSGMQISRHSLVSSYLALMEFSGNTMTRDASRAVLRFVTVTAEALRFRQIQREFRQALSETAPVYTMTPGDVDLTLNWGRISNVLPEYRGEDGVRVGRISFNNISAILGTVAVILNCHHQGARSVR

{"structure.smiles": "CC1(C)Cc2cc(C(=O)O)sc2-c2ccccc21", "tgt": "Stx2A1 (Escherichia phage 933W)", "IC50 (µM)": 83}
